Quick reference for MTD (maximum tolerated dose), lethal dose for 10% of normal mice (LD10) among some compounds
MEASUREMENT_PROTOCOL: Maximum tolerated dose (LD10) in tumor-free male mice
MEASUREMENT_PARAMETERS: ip days 1, 5, 9; deaths observed during 21 days; from plot of log dose vs percent mortality
*1 amine or outer side, *2 acyl side, *3 side chain or, on linkers, in order; H or OH if unused. Where a SMILES comes first, the peptide text is derived from it. Bridges are numbered along the chain shown (N, C = ends). Roman numbers before positions name the chains, in order. [ ]: non-standard residue; d: D form. Actinocin(9to1) = Cc1c2oc3c(C)ccc(C(=O)[*:1])c3nc-2c(C(=O)[*:2])c(N)c1=O; NMeV = CN[C@H](C(=O)O)C(C)C; Sar = CNCC(=O)O
Write the value in milligram/kilogram as a bare number.

In the examples that follow, each entry is paired with its recorded MTD (maximum tolerated dose), lethal dose for 10% of normal mice (LD10).
Cc1c2oc3c(C)c4oc(-c5ccccc5)nc4c(C(=O)N[C@@H]4C(=O)N[C@H](C(C)C)C(=O)N5CCC[C@H]5C(=O)N(C)CC(=O)N(C)[C@@H](C(C)C)C(=O)O[C@@H]4C)c3nc-2c(C(=O)N[C@@H]2C(=O)N[C@H](C(C)C)C(=O)N3CCC[C@H]3C(=O)N(C)CC(=O)N(C)[C@@H](C(C)C)C(=O)O[C@@H]2C)c(N)c1=O: 2.00
Cc1nc2c(C(=O)N[C@@H]3C(=O)N[C@H](C(C)C)C(=O)N4CCC[C@H]4C(=O)N(C)CC(=O)N(C)[C@@H](C(C)C)C(=O)O[C@@H]3C)c3nc4c(C(=O)N[C@@H]5C(=O)N[C@H](C(C)C)C(=O)N6CCC[C@H]6C(=O)N(C)CC(=O)N(C)[C@@H](C(C)C)C(=O)O[C@@H]5C)c(N)c(=O)c(C)c-4oc3c(C)c2o1: 1.80
Cc1c2oc3c(C)ccc(C(=O)N[C@@H]4C(=O)N[C@H](C(C)C)C(=O)N5CCC[C@H]5C(=O)N(C)CC(=O)N(C)[C@@H](C(C)C)C(=O)O[C@@H]4C)c3nc-2c(C(=O)N[C@@H]2C(=O)N[C@H](C(C)C)C(=O)N3CCC[C@H]3C(=O)N(C)CC(=O)N(C)[C@@H](C(C)C)C(=O)O[C@@H]2C)c(N)c1=O [AMD (1), Actinomycin D] (I: T[dV]P[Sar][NMeV] / II: T[dV]P[Sar][NMeV]; ester I:1-I:C, II:1-II:C; linker I:N-II:N via Actinocin(9to1)): 0.25

-- ask Query (compound): Cc1c2oc3c(C)c4oc(CC(=O)NCCCCN)nc4c(C(=O)N[C@@H]4C(=O)N[C@H](C(C)C)C(=O)N5CCC[C@H]5C(=O)N(C)CC(=O)N(C)[C@@H](C(C)C)C(=O)O[C@@H]4C)c3nc-2c(C(=O)N[C@@H]2C(=O)N[C@H](C(C)C)C(=O)N3CCC[C@H]3C(=O)N(C)CC(=O)N(C)[C@@H](C(C)C)C(=O)O[C@@H]2C)c(N)c1=O ; field requested: MTD (maximum tolerated dose), lethal dose for 10% of normal mice (LD10)
-- reply 3.50

###

Tested on: rat liver microsomes
MEASUREMENT_PROTOCOL: Stimulation of NADPH oxidation by rat hepatic microsomal incubations
Type: biochemical
MEASUREMENT_PARAMETERS: (drug-stimulated rate - basal rate)/basal rate × 100
*1 amine or outer side, *2 acyl side, *3 side chain or, on linkers, in order; H or OH if unused. Where a SMILES comes first, the peptide text is derived from it. Bridges are numbered along the chain shown (N, C = ends). Roman numbers before positions name the chains, in order. [ ]: non-standard residue; d: D form. Actinocin(9to1) = Cc1c2oc3c(C)ccc(C(=O)[*:1])c3nc-2c(C(=O)[*:2])c(N)c1=O; NMeV = CN[C@H](C(=O)O)C(C)C; Sar = CNCC(=O)O
Quick reference for percentage stimulation of NADPH oxidation among some compounds
Write the value in % as a bare number.

In the examples that follow, each entry is paired with its recorded percentage stimulation of NADPH oxidation.
Cc1c2oc3c(C)c4oc(CC(=O)NCCCCN)nc4c(C(=O)N[C@@H]4C(=O)N[C@H](C(C)C)C(=O)N5CCC[C@H]5C(=O)N(C)CC(=O)N(C)[C@@H](C(C)C)C(=O)O[C@@H]4C)c3nc-2c(C(=O)N[C@@H]2C(=O)N[C@H](C(C)C)C(=O)N3CCC[C@H]3C(=O)N(C)CC(=O)N(C)[C@@H](C(C)C)C(=O)O[C@@H]2C)c(N)c1=O: 812
Cc1c2oc3c(C)c4oc(-c5ccccc5)nc4c(C(=O)N[C@@H]4C(=O)N[C@H](C(C)C)C(=O)N5CCC[C@H]5C(=O)N(C)CC(=O)N(C)[C@@H](C(C)C)C(=O)O[C@@H]4C)c3nc-2c(C(=O)N[C@@H]2C(=O)N[C@H](C(C)C)C(=O)N3CCC[C@H]3C(=O)N(C)CC(=O)N(C)[C@@H](C(C)C)C(=O)O[C@@H]2C)c(N)c1=O: 610
Cc1c2oc3c(C)ccc(C(=O)N[C@@H]4C(=O)N[C@H](C(C)C)C(=O)N5CCC[C@H]5C(=O)N(C)CC(=O)N(C)[C@@H](C(C)C)C(=O)O[C@@H]4C)c3nc-2c(C(=O)N[C@@H]2C(=O)N[C@H](C(C)C)C(=O)N3CCC[C@H]3C(=O)N(C)CC(=O)N(C)[C@@H](C(C)C)C(=O)O[C@@H]2C)c(N)c1=O [AMD (1), Actinomycin D] (I: T[dV]P[Sar][NMeV] / II: T[dV]P[Sar][NMeV]; ester I:1-I:C, II:1-II:C; linker I:N-II:N via Actinocin(9to1)): 9.9

Moving on to the next compound.
-- ask Query (compound): Cc1c2oc3c(C)c(O)c(N)c(C(=O)N[C@@H]4C(=O)N[C@H](C(C)C)C(=O)N5CCC[C@H]5C(=O)N(C)CC(=O)N(C)[C@@H](C(C)C)C(=O)O[C@@H]4C)c3nc-2c(C(=O)N[C@@H]2C(=O)N[C@H](C(C)C)C(=O)N3CCC[C@H]3C(=O)N(C)CC(=O)N(C)[C@@H](C(C)C)C(=O)O[C@@H]2C)c(N)c1=O ; field requested: percentage stimulation of NADPH oxidation
-- reply 606
